# System tested: SNX27, Q96L92
# Measurement description: holdup assay
# Set-up: key: below the threshold = too weak to quantify, mostly under pKd 3.1 to 4
# Stated conditions: plain residues with an end cap or a label only (N-terminal biotin on a linker: ado-ado)
Measure: pKd

# Binder, Measure, Endpoint value
rows = [
    ("EDLEDEWEVI [TECPR2, O15040]", "pKd", "below the threshold"),
    ("LAHVKHKEQI [AQP3, Q92482]", "pKd", "below the threshold"),
    ("MHIQEKGFHV [EPHA6, Q9UF33]", "pKd", "below the threshold"),
]
